This collection of values is drawn from patent US10758534B2.

Target: F508del (Homo sapiens, UniProt P13569, DEL508-508)
Construct: expressed in transfected cells
Sequence (P13569 with tags, fused parts or gaps DEL508-508): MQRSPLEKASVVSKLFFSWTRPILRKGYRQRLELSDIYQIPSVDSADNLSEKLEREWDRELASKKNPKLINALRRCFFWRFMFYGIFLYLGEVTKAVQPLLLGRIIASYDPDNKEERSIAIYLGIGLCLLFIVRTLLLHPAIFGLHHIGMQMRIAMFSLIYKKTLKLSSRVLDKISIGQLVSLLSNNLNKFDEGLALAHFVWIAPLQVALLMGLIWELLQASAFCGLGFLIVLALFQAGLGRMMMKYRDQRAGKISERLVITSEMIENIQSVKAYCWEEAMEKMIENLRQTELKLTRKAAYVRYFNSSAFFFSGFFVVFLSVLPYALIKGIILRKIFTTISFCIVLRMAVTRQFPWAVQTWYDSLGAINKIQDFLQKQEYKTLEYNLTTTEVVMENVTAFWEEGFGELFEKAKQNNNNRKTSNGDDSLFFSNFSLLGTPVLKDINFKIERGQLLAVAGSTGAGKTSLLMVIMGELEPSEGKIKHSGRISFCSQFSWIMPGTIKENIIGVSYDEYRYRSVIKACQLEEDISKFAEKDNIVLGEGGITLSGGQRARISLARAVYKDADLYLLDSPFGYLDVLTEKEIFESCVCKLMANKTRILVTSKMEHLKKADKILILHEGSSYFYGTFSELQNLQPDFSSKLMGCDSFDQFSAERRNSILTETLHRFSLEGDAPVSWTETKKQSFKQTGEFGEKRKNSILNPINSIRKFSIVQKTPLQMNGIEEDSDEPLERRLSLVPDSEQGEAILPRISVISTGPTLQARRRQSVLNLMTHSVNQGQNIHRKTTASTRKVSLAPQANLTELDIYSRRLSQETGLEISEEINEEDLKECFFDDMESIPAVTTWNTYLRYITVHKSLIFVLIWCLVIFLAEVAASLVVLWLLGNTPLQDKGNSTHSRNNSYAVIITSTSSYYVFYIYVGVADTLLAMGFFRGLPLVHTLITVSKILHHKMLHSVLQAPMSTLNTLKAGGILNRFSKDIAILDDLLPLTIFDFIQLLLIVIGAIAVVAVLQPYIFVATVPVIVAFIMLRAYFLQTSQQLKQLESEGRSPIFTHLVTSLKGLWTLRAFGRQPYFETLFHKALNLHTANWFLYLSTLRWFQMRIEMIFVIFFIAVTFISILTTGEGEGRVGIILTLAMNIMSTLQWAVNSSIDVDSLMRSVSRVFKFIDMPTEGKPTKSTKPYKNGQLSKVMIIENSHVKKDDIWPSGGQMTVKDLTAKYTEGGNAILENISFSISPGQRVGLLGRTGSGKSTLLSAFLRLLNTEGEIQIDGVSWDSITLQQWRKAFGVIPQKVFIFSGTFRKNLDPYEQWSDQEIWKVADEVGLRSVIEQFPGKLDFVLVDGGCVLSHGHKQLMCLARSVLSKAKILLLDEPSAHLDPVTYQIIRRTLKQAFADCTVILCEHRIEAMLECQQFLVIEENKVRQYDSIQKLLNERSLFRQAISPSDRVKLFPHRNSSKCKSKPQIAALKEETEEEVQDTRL
Experiment: Protocol 2: FRET membrane potential optical assay (VIPR), identification of correction compounds
Assay type: cell-based
Conditions: Table 3; compounds of Table 1 as modulators of CFTR activity; protocol not stated
parameter_measured: EC30

CC(C)Oc1ccc(-c2ccc(C(=O)NS(=O)(=O)c3ccn[nH]3)c(N3CCC[C@H](c4ccccc4)C3)n2)cn1 [Compound 741]    +++ (“+++” means <3 uM)
Cc1cc(C)c(Oc2nc(C(C)(C)C)ccc2C(=O)NS(=O)(=O)c2cccc(N(C)C)n2)c(C)c1 [Compound 468]    +++ (“+++” means <3 uM)
Cc1cccc(C)c1Cn1nc(-c2ccc(N3CCCCC3)nc2)cc1C(=O)NS(=O)(=O)c1ccccc1 [Compound 329]    +++ (“+++” means <3 uM)

====

Target: F508del (Homo sapiens, UniProt P13569, DEL508-508)
Construct: expressed in transfected cells
Assay: Protocol 1: membrane potential optical assay (FLIPR III, voltage sensing dye), identification of potentiator compounds
Assay type: cell-based
Settings: Table 3, compounds of Table 1
parameter_measured: EC30

CC(C)(C)c1ccc(C(=O)NS(=O)(=O)c2cccc(N)n2)c(Oc2ccc(F)cc2F)n1 [Compound 829]    +++ (“+++” means <3 uM)
CC1CN(c2ncccc2C(=O)NS(=O)(=O)c2cccc(N3CCN(c4ccccn4)CC3)n2)C(C)(C)C1 (stereo not shown) [Compound 1816]    +++ (“+++” means <3 uM)
CC1CN(c2nc(C(C)(C)C)c(C3=COCCC3)cc2C(=O)NS(=O)(=O)c2cccc(N)n2)C(C)(C)C1 (stereo not shown) [Compound 1487]    +++ (“+++” means <3 uM)

====

Target: F508del (Homo sapiens, UniProt P13569, DEL508-508)
Construct: expressed in transfected cells
Assay: Protocol 2: FRET membrane potential optical assay (VIPR), identification of correction compounds
Type: cell-based
Conditions: Table 3; compounds of Table 1 as modulators of CFTR activity; protocol not stated
parameter_measured: EC30

Cc1cc(C)c(Cn2c(C(=O)NS(=O)(=O)c3cccc(N)c3)nc3ccccc32)c(C)c1    +++ (“+++” means <3 uM)
COc1ccc(-c2cc(C(=O)NS(=O)(=O)c3ccccc3)n(Cc3c(C)cccc3C)n2)c(OC)c1    +++ (“+++” means <3 uM)
CC(C)(C)c1ccc(C(=O)NS(=O)(=O)c2cccc(N)c2)c(-c2ccc(Cl)cc2)n1    +++ (“+++” means <3 uM)

====

Target: F508del (Homo sapiens, UniProt P13569, DEL508-508)
Construct: expressed in transfected cells
Assay: Protocol 2: FRET membrane potential optical assay (VIPR), identification of correction compounds
Assay type: cell-based
Details: F508del CFTR modulator activity; compounds of Table 1; read-out: EC30
parameter_measured: EC30

CC1CN(c2ncccc2C(=O)NS(=O)(=O)c2cccc(OCc3ccc(C(F)(F)F)nc3)n2)C(C)(C)C1 (stereo not shown) [Compound 2476]    < 3 µM
CCOCCN(C)c1ncc(-c2ccc(C(=O)NS(=O)(=O)c3cccc(N)n3)c(N3C[C@@H](C)CC3(C)C)n2)cc1C [Compound 2682]    < 3 µM
C[C@@H]1CN(c2nc(C3=CCCN(C(=O)CC4CCCCC4)C3)ccc2C(=O)NS(=O)(=O)c2cccc(N)n2)C(C)(C)C1 [Compound 2633]    3 to 10 µM
C[C@@H]1CN(c2nc(-n3ccc(-c4ccccc4)n3)ccc2C(=O)NS(=O)(=O)c2cccnc2N)C(C)(C)C1 [Compound 2696]    < 3 µM
C[C@@H]1CN(c2ncccc2C(=O)NS(=O)(=O)N2CC[C@@H](NCCCc3ccc(Cl)cc3)C2)C(C)(C)C1 [Compound 2710]    3 to 10 µM
COc1c(F)cccc1-c1ccc(C(=O)NS(=O)(=O)c2cccnc2N)c(N2C[C@@H](C)CC2(C)C)n1 [Compound 2355]    < 3 µM

Could you now consider this next compound?
Prompt: Tell me the measured EC30 of COc1ccccc1CNc1cccc(S(=O)(=O)NC(=O)c2cccnc2N2CC(C)CC2(C)C)n1 (stereo not shown) [Compound 2310] , please.
Completion: < 3 µM
